target: Tyrosine-protein kinase SYK (Homo sapiens, UniProt P43405); experiment: Inhibition of SYK in human whole blood assessed as reduction in anti-FCepsilonR1 mAb-induced basophil activation by measuring decrease in CD63 surface expression incubated for 60 mins followed by anti-FCepsilonR1 mAb stimulation for 20 mins by flow cytometry analysis; assay type: tissue-based
Categorize each record by its EC50 using low: < 200 nM; medium: ≥ 200 nM and < 700 nM; high: ≥ 700 nM

Problem: Band of `c1cn2cc(-c3ccc4cn[nH]c4c3)nc(Nc3ccc(N4C[C@@H]5C[C@H]4CO5)cc3)c2n1` ?
Result: high

Problem: Band of `O=S1(=O)CCN(c2ccc(Nc3nc(-c4ccc5cn[nH]c5c4)cn4ccnc34)cc2)CC1` ?
Result: high

Problem: Band of `OC[C@H]1CN(c2ccc(Nc3nc(-c4ccc5cn[nH]c5c4)cn4ccnc34)cc2)CCO1` ?
Result: medium

Problem: Band of `c1cn2cc(-c3cnc4cn[nH]c4c3)nc(Nc3ccc(N4CCN(C5COC5)CC4)cc3)c2n1` ?
Result: low

Problem: Band of `c1cn2cc(-c3ccc4nc[nH]c4n3)nc(Nc3ccc(N4CCN(C5COC5)CC4)cc3)c2n1` ?
Result: low

Problem: Band of `c1cn2cc(-c3ccc4cn[nH]c4c3)nc(Nc3ccc(N4CC5CC(C4)O5)cc3)c2n1` ?
Result: high

Problem: Band of `OC1CN(c2ccc(Nc3nc(-c4ccc5cn[nH]c5c4)cn4ccnc34)cc2)C1` ?
Result: high

Problem: Band of `c1cn2cc(-c3cnc4nc[nH]c4c3)nc(Nc3ccc(N4CCN(C5COC5)CC4)cc3)c2n1` ?
Result: medium

Problem: Band of `c1cn2cc(-c3cnc4c(c3)NCCO4)nc(Nc3ccc(N4CCN(C5COC5)CC4)cc3)c2n1` ?
Result: low

Problem: Band of `c1cn2cc(-c3ccc4cn[nH]c4c3)nc(Nc3ccc(N4CC5(COC5)C4)cc3)c2n1` ?
Result: high

Problem: Band of `c1cn2cc(-c3ccc4cn[nH]c4c3)nc(Nc3ccc(N4C[C@H]5CC[C@@H](C4)O5)cc3)c2n1` ?
Result: high

Problem: Band of `c1cn2cc(-c3ccc4cn[nH]c4c3)nc(Nc3ccc(N4[C@H]5COC[C@@H]4COC5)cc3)c2n1` ?
Result: low

Problem: Band of `c1cn2cc(-c3ccc4c(n3)NCCO4)nc(Nc3ccc(N4CCN(C5COC5)CC4)cc3)c2n1` ?
Result: medium

Problem: Band of `CN(C)C[C@@H]1CN(c2ccc(Nc3nc(-c4ccc5cn[nH]c5c4)cn4ccnc34)cc2)CCO1` ?
Result: medium

Problem: Band of `c1cn2cc(-c3ccc4cn[nH]c4n3)nc(Nc3ccc(N4CCN(C5COC5)CC4)cc3)c2n1` ?
Result: low

Problem: Band of `c1cn2cc(-c3cnc4c(n3)NCCO4)nc(Nc3ccc(N4CCN(C5COC5)CC4)cc3)c2n1` ?
Result: low

Problem: Band of `c1cn2cc(-c3ccc4cn[nH]c4c3)nc(Nc3ccc(N4CCN(C5COC5)CC4)cc3)c2n1` ?
Result: medium

Problem: Band of `c1cn2cc(-c3ccc4cc[nH]c4c3)nc(Nc3ccc(N4CCN(C5COC5)CC4)cc3)c2n1` ?
Result: medium

Problem: Band of `Nc1cccc(-c2cn3ccnc3c(Nc3ccc(N4CCN(C5COC5)CC4)cc3)n2)c1` ?
Result: high

Problem: Band of `CCN1CCN(c2ccc(Nc3nc(-c4ccc5cn[nH]c5c4)cn4ccnc34)cc2)CC1` ?
Result: medium

Problem: Band of `c1cn2cc(-c3cnc4cc[nH]c4n3)nc(Nc3ccc(N4CCN(C5COC5)CC4)cc3)c2n1` ?
Result: low

Problem: Band of `c1cn2cc(-c3ccc4cc[nH]c4n3)nc(Nc3ccc(N4CCN(C5COC5)CC4)cc3)c2n1` ?
Result: low

Problem: Band of `c1cn2cc(-c3cnc4cn[nH]c4n3)nc(Nc3ccc(N4CCN(C5COC5)CC4)cc3)c2n1` ?
Result: low

Problem: Band of `c1cn2cc(-c3ccc4nc[nH]c4c3)nc(Nc3ccc(N4CCN(C5COC5)CC4)cc3)c2n1` ?
Result: low

Problem: Band of c1cn2cc(-c3ccc4cn[nH]c4c3)nc(Nc3ccc(N4CC5COCC5C4)cc3)c2n1 (stereo not drawn) ?
Result: high

Problem: Band of `Nc1cccc(-c2cn3ccnc3c(Nc3ccc(N4CCN(C5COC5)CC4)cc3)n2)n1` ?
Result: medium

Problem: Band of `OC1CCN(c2ccc(Nc3nc(-c4ccc5cn[nH]c5c4)cn4ccnc34)cc2)CC1` ?
Result: medium

Problem: Band of `c1cn2cc(-c3ccc4cn[nH]c4c3)nc(Nc3ccc(N4CC5(CCOCC5)C4)cc3)c2n1` ?
Result: high

Problem: Band of `c1cn2cc(-c3cnc4cc[nH]c4c3)nc(Nc3ccc(N4CCN(C5COC5)CC4)cc3)c2n1` ?
Result: low

Problem: Band of `C[C@@H]1CN(c2ccc(Nc3nc(-c4ccc5cn[nH]c5c4)cn4ccnc34)cc2)C[C@H](C)O1` ?
Result: high

Problem: Band of `c1cn2cc(-c3ccc4c(c3)NCCO4)nc(Nc3ccc(N4CCN(C5COC5)CC4)cc3)c2n1` ?
Result: high

Problem: Band of `COCCN1CCN(c2ccc(Nc3nc(-c4ccc5cn[nH]c5c4)cn4ccnc34)cc2)CC1` ?
Result: medium

Data origin: ChEMBL document CHEMBL4602710
